# experiment_notes: Solubility of the compound in water
# Format: physicochemical
# test_parameters: buffer
Consider the following compounds and their measured solubility readings.
Provide only the numeric value, understood in µg/mL.

Kindly indicate its recorded solubility. Item: COc1ccc(/C=C\c2cc(I)c(OC)c(OC)c2)cc1OP(=O)([O-])[O-].[Na+].[Na+]
2000

Using the record for COc1ccc(/C=C\c2cc(I)c(OC)c(I)c2)cc1OP(=O)([O-])[O-].[K+].[K+] , state its measured solubility.
22000

# return recorded solubility for entry COc1ccc(/C=C\c2cc(I)c(OC)c(I)c2)cc1OP(=O)([O-])[O-].[Na+].[Na+]
2000

Item COc1ccc(/C=C\c2cc(I)c(OC)c(OC)c2)cc1OP(=O)([O-])[O-].[K+].[K+] : provide solubility
14000
